Target: Ubiquitin-conjugating enzyme E2 N (Homo sapiens) (UniProt P61088)
Sequence (P61088 whole entry, looked up): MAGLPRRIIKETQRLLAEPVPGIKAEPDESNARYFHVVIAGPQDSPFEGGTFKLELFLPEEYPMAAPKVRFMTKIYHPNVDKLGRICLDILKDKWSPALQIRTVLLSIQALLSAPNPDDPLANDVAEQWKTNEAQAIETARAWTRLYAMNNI
Assay: UBE2N binders by NMR, biophysical, purified protein (AID 1552)
Details: NMR binding to purified UBE2N
Activity calls are given as the source filed them. No rule for the calls is given here.

# compound, Kd
data = [
    ("COc1ccc(S(=O)(=O)N2CCOCC2)cc1C(C)C", "> 4 mM (inactive)"),
    ("CCOC(=O)c1c(C)cc(O)c(C)c1O", "> 4 mM (inactive)"),
    ("Nc1ncnc2c1ncn2C1O[C@H](COP(=O)(O)O)[C@@H](O)[C@H]1O (some centres not stated)", "> 4 mM (inactive)"),
    ("Cc1cc(C)n2c(SCc3cccs3)nnc2n1", "> 4 mM (inactive)"),
    ("O=C(Nc1ccncc1)Nc1ccc(F)cc1F", "> 4 mM (inactive)"),
    ("Cc1cc(C(=O)NCc2cccnc2)no1", "> 4 mM (inactive)"),
    ("Cc1csc(NC(=O)c2ccoc2C)n1", "> 4 mM (inactive)"),
    ("C=C(C)[C@@H]1[C@H]2OC(=O)[C@@H]1[C@]1(O)C[C@H]3O[C@]34C(=O)O[C@H]2[C@]14C", "> 4 mM (inactive)"),
    ("S=c1oc(-c2ccncc2)nn1CCc1ccncc1", "> 4 mM (inactive)"),
    ("NNC(=O)c1ccccc1-n1cccc1", "> 4 mM (inactive)"),
    ("Cc1nc(SCC(=O)c2c[nH]c3ccccc23)n[nH]1", "> 4 mM (inactive)"),
    ("COc1c(O)cc2oc3cc(O)c(CC=C(C)C)c(O)c3c(=O)c2c1CC=C(C)C", "> 4 mM (inactive)"),
    ("Cc1cc(NC(=O)c2c(F)c(F)c(F)c(F)c2F)no1", "> 4 mM (inactive)"),
    ("Clc1ncc2[nH]cnc2n1", "> 4 mM (inactive)"),
    ("OCc1c[nH]c2ccccc12", "> 4 mM (inactive)"),
    ("CCOC(=O)C(C)c1n[nH]c(=O)c2ccccc12 (configuration not stated)", "> 4 mM (inactive)"),
    ("Cc1nc2c(n1O)CCc1c-2no[n+]1[O-]", "> 4 mM (inactive)"),
    ("NC(=O)COc1ccccc1O", "> 4 mM (inactive)"),
    ("Cc1ccccc1NC(=O)c1ccccc1", "> 4 mM (inactive)"),
    ("CC(=O)NCC1(c2ccccc2)CCOCC1", "> 4 mM (inactive)"),
    ("COC1=CC23CCCN2CCc2cc4c(cc2C3C1O)OCO4 (configuration not stated)", "> 4 mM (inactive)"),
    ("COc1ccc(NC(=O)c2ccc[n+]([O-])c2)cc1", "> 4 mM (inactive)"),
    ("CCc1ccc2oc(-c3cc(N)cc(C)c3O)nc2c1", "> 4 mM (inactive)"),
    ("CSc1nc2nccc(N)n2n1", "> 4 mM (inactive)"),
    ("NC1=NC(=O)/C(=C\\c2ccco2)S1", "> 4 mM (inactive)"),
    ("Nc1ncnc(NCCCO)c1[N+](=O)[O-]", "> 4 mM (inactive)"),
    ("NC(=O)c1ccc(Cl)c(N2C(=O)CCC2=O)c1", "> 4 mM (inactive)"),
    ("OC[C@@H](O)[C@@H](O[C@@H]1O[C@H](CO)[C@@H](O)[C@H](O)[C@H]1O)[C@H](O)[C@@H](O)CO", "> 4 mM (inactive)"),
    ("O=C(/C=C/c1ccc(O)cc1)c1ccc(O)cc1O", "> 4 mM (inactive)"),
    ("NC(=O)C1(c2ccccc2)CCOCC1", "> 4 mM (inactive)"),
    ("Cc1nc2c(=O)[nH]c3ccccc3c2o1", "> 4 mM (inactive)"),
    ("CCC(=O)Nc1cccc(NC(C)=O)c1", "> 4 mM (inactive)"),
    ("O=C(O)CN(CCCc1ccccc1)CC(=O)O", "> 4 mM (inactive)"),
    ("COc1ccccc1-c1noc(-c2ccncc2)n1", "> 4 mM (inactive)"),
    ("c1cnc(N2CCSCC2)nc1", "> 4 mM (inactive)"),
    ("CN(C)C(=O)C12CCC(C)(C(=O)O1)C2(C)C (configuration not stated)", "> 4 mM (inactive)"),
    ("CC(C)(C)CC(=O)N1CCC(C(N)=O)CC1", "> 4 mM (inactive)"),
    ("O=C(NCN1CCOCC1)c1cccnc1", "> 4 mM (inactive)"),
    ("Cc1cc(N)n(C2CCOC(C)(C)C2)n1 (configuration not stated)", "> 4 mM (inactive)"),
    ("CC1=C(C(N)=O)C(c2ccco2)C(C(N)=O)=C(C)N1", "> 4 mM (inactive)"),
    ("Cc1nnc(N2CCN(Cc3ccccc3)CC2)[nH]c1=O", "> 4 mM (inactive)"),
    ("Cc1cc(C(=O)N2CCN(c3ccccn3)CC2)c(C)o1", "> 4 mM (inactive)"),
    ("COCC(=O)Nc1c(C(N)=O)oc2ccccc12", "> 4 mM (inactive)"),
    ("O=C(c1ccc(F)cc1)N1CCOCC1", "> 4 mM (inactive)"),
    ("O=C(Oc1ccc2c(c1)CCC2)N1CCOCC1", "> 4 mM (inactive)"),
    ("CNS(=O)(=O)c1ccc2[nH]c(=O)[nH]c2c1", "> 4 mM (inactive)"),
    ("O=C(/C=C/c1ccc(O)c(O)c1)O[C@@H]1C[C@](O)(C(=O)O)C[C@@H](O)[C@H]1O", "> 4 mM (inactive)"),
    ("CC(=O)O[C@H]1C[C@@H](OC(C)=O)C(C)(C)C2C[C@@H](OC(C)=O)[C@@]3(C)C4=CC(=O)O[C@@H](c5ccoc5)[C@]4(C)CCC3[C@]21C (some centres not stated)", "> 4 mM (inactive)"),
    ("CC1(C)O[C@H]2[C@H](O)C[C@](O)(C(N)=O)C[C@H]2O1", "> 4 mM (inactive)"),
    ("O=C(O)c1cn(-c2ccccc2)nc1-c1ccncc1", "> 4 mM (inactive)"),
    ("O=C(O)[C@H](O)[C@@](O)(Cc1ccc(O)cc1)C(=O)O", "> 4 mM (inactive)"),
    ("CC(=O)c1cnc2nc(C(F)(F)F)nn2c1C", "> 4 mM (inactive)"),
]
